- TARGET OR TEST SYSTEM: Metabotropic glutamate receptor 8 (Rattus norvegicus)
- TEST DESCRIPTION: mGluR8 Gi/Go-coupled signaling modulation – cell-based, rat, thallium flux, HTS, primary screen (AID 488969)
- EXPERIMENTAL CONDITIONS: HEK293 rat mGluR8, GIRK (G protein-gated inwardly rectifying potassium channel) thallium flux, FluoZin2; at 10 µM; stronger effect = higher value
The full ranking holds about 110,000 compounds; the median of “z-score” is about -0.1, and the highest 2% start at about 2. The list comes from a sample in which the highest values are over-represented; it also holds close analogues and randomly drawn compounds. Calls of active or inactive are those of the source.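 Rule for the calls: active = z-score in the third read window above 3 or below -3; inactive = the rest.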
# z-score annotations

The cases that follow already have their z-score on record.
>>> value_observed("COc1ccc(CCN(C)Cc2c(F)cccc2F)cc1OC")
0.419
>>> value_observed("O=C(c1cc([N+](=O)[O-])ccc1N1CCNCC1)N1CCOCC1")
-0.253
>>> value_observed("c1ccc2c(CNC3CCCCCC3)c[nH]c2c1")
-0.0434
>>> value_observed("C=CCOC(=O)C1=C(C)OC(N)=C(C(=O)OCC)C12C(=O)N(CC(N)=O)c1ccccc12 (stereo not drawn)")
-0.605
>>> value_observed("c1ccc2c(CNC3CCCCC3)c[nH]c2c1")
"4.16 (active)"

INPUT: Notebook: pull reported z-score for Metabotropic glutamate receptor 8 (Rattus norvegicus), entry "CCN1CCN(CC(=O)c2c(C)n(Cc3ccccc3)c3ccc(OC)cc23)CC1"
OUTPUT: 0.191

INPUT: Request - read-out z-score | tested on Metabotropic glutamate receptor 8 (Rattus norvegicus) | molecule NC12CN3CN(CN(C3)C1)C2 (tested in a mixture with another compound)
OUTPUT: -0.55

INPUT: Identify the measured z-score of CCN(c1ccc(C(O)(C(=O)OC)C(F)(F)F)cc1)S(=O)(=O)c1ccc(C)cc1 (stereo not drawn) for Metabotropic glutamate receptor 8 (Rattus norvegicus).
OUTPUT: 1.21

INPUT: Please tell me: z-score of CCCCCCCC(=O)NC(Oc1ccccc1[N+](=O)[O-])C(Cl)(Cl)Cl (stereo not drawn) , system Metabotropic glutamate receptor 8 (Rattus norvegicus)?
OUTPUT: 0.238

INPUT: For Metabotropic glutamate receptor 8 (Rattus norvegicus), provide z-score of N#CC1=C(N)Oc2c(c(=O)oc3ccccc23)C1c1ccncc1 (stereo not drawn) please.
OUTPUT: -0.0723

INPUT: # get_value(readout= z-score, system= Metabotropic glutamate receptor 8 (Rattus norvegicus)) for "CN(C)P1(N(C)C)=Nc2c(c(N)nn2C)C(c2ccccc2)=N1"
OUTPUT: 1.2

INPUT: Missing value: z-score, Metabotropic glutamate receptor 8 (Rattus norvegicus), entry CCOC(=O)N(C)c1ccc(C(O)(C(=O)OCC)C(F)(F)F)cc1 (stereo not drawn) . Fill in?
OUTPUT: -0.0433

INPUT: Write down the reported z-score of "Cc1ccc(Cc2c(C)nc3nc(SCC(=O)N4CCC5(CC4)OCCO5)nn3c2C)cc1" , test system: Metabotropic glutamate receptor 8 (Rattus norvegicus).
OUTPUT: -0.0184

Just for reference, PubChem BioAssay AID488969 is where these values come from.
